Target: T1, biotinylated CD47 IgSF domain (human CD47 residues 19-135 / residues 1-117, C15G) (human, UniProt Q08722 19-135, biotinylated with BirA ligase at the C-terminal biotin acceptor peptide tag)
T1 construct: range 19-135; Captured on a Biacore SA chip for SPR; C15G is counted on the mature domain (1-117), not on the precursor; also called immobilized CD47
T1 sequence (Q08722 other isoform, or with tags, fused parts or gaps C15G C15G limits assumed): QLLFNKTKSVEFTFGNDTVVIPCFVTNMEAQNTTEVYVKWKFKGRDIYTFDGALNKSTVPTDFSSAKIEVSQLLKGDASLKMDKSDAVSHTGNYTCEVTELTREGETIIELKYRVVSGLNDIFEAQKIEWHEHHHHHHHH
Assay: SPR (Biacore T100, 25 C), biotinylated CD47 captured on SA chip, SIRPα variant in solution, 1:1 Langmuir model

binder	resultUnits	Kd
high-affinity SIRPα variant FD6 monomer (d1 domain) (designed binder, Second generation variant of human SIRPα allele 1 d1) EEEVQIIQPDKSVSVAAGESAILHCTITSLFPVGPIQWFRGAGPARVLIYNQRQGPFPRVTTISETTRRENMDFSISISNITPADAGTYYCIKFRKGSPDTEFKSGAGTELSVRAKPSHHHHHHHH	nM	0.0413
2A10 (designed binder, also called 2A10 mutant d1 domain) SIRPα d1 domain variant: EEELQIIQPDKSVSVAAGESAILHCTITSLSPVGPIQWFRGAGPARVLIYNQRQGPFPRVTTVSEGTKRENMDFSISISNITPADAGTYYCIKLRKGSPDTEFKSGAGTELSVRAKPS	nM	0.5
1D4 (designed binder, First generation variant, unbiotinylated monomer in SPR; also called 1D4 mutant d1 domain) SIRPα d1 domain variant: EEELQVIQPDKSVSVAAGESAILHCTITSLIPVGPIQWFRGAGPARELIYNQREGHFPRVTTVSETTRRENMDFSISISNITPADAGTYYCVKFRKGSPDTEVKSGAGTELSVRAKPS	nM	11.6
2B5 (designed binder, also called 2B5 mutant d1 domain) SIRPα d1 domain variant: EEEIQVIQPDKSVSVAAGESVIIHCTVTSLFPVGPIQWFRGAGPARVLIYNQRQGRFPRVTTVSEGTKRENMDFSISISNITPADAGTYYCVKVRKGSPDTEVKSGAGTELSVRAKPS	nM	0.423
